These measurements were taken from paper PMC8151276.

Measured NanoBRET Fold Response, listed per entry.
# Tested system: C5AR1 (Homo sapiens)
# Construct: purchased Promega (in-house HiBiT-GPCR construct library, NanoBRET)
# Sequence (P21730 whole entry): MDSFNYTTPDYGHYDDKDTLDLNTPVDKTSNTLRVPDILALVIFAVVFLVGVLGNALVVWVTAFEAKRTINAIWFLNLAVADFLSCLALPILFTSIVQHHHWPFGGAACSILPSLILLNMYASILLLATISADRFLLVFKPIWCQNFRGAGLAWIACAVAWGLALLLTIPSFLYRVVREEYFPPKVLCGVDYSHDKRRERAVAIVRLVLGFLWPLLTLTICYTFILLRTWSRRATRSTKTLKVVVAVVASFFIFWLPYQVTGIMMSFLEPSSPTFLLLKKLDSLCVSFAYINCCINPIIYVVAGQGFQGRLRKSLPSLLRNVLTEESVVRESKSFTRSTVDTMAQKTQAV
# Test summary: NanoBRET screen HiBiT-C5AR1 in HEK293
# Assay type: binding
# Condition details: C5AR1; tracer 1μM

Worked set:
[
  {
    "Molecule": "COc1ccccc1N1CCN(CCCCN2C(=O)c3ccc(CNC(=O)CCOCCOCCOCCOCCNC(=O)CCc4ccc5n4[B-](F)(F)[N+]4=C(c6ccc[nH]6)C=CC4=C5)cc3C2=O)CC1",
    "NanoBRET Fold Response": 1.04
  },
  {
    "Molecule": "N#CN=C(NCCCOc1cccc(CN2CCCCC2)c1)NCCNC(=O)CCOCCOCCOCCOCCNC(=O)CCc1ccc2n1[B-](F)(F)[N+]1=C(c3ccc[nH]3)C=CC1=C2",
    "NanoBRET Fold Response": 0.98
  },
  {
    "Molecule": "CC(C)N(CC[C@H](c1ccccc1)c1cc(CCNC(=O)CCOCCOCCOCCOCCNC(=O)CCc2ccc3n2[B-](F)(F)[N+]2=C(c4ccc[nH]4)C=CC2=C3)ccc1O)C(C)C",
    "NanoBRET Fold Response": 1.08
  }
]

Problem: Given the molecule Cc1cc2c(s1)Nc1ccccc1N=C2N1CCN(CCCNC(=O)CCOCCOCCOCCOCCNC(=O)CCc2ccc3n2[B-](F)(F)[N+]2=C(c4ccc[nH]4)C=CC2=C3)CC1 , what is its reported NanoBRET Fold Response?
Solution: 1.09

Problem: Given O=C(CCc1ccc2n1[B-](F)(F)[N+]1=C(c3ccc[nH]3)C=CC1=C2)NCc1ccc(C(=O)NCCOCCC(=O)N[C@@H]2CC[C@@]3(O)[C@H]4Cc5ccc(O)c6c5[C@@]3(CCN4CC3CC3)[C@H]2O6)cc1 [Naltrexone-3-NB590] , state its recorded NanoBRET Fold Response.
Solution: 0.93

Problem: Returns the measured NanoBRET Fold Response for the input molecule. Input: CCCn1c(=O)c2[nH]c(-c3ccc(OCC(=O)NCCNC(=O)CCOCCNC(=O)c4ccc(CNC(=O)CCc5ccc6n5[B-](F)(F)[N+]5=C(c7ccc[nH]7)C=CC5=C6)cc4)cc3)nc2n(CCC)c1=O
Solution: 1.04

Problem: Would you kindly share the measured NanoBRET Fold Response for O=C(CCc1ccc2n1[B-](F)(F)[N+]1=C(c3ccc[nH]3)C=CC1=C2)NCCOCCOCCNC(=O)OCCOCCN1CCN(C2=Nc3ccccc3Sc3ccccc32)CC1 ?
Solution: 0.84

Problem: For the molecule shown here, COc1ccccc1N1CCN(CCCCN2C(=O)c3ccc(CNC(=O)CCOCCNC(=O)c4ccc(CNC(=O)CCc5ccc6n5[B-](F)(F)[N+]5=C(c7ccc[nH]7)C=CC5=C6)cc4)cc3C2=O)CC1 , give the reported NanoBRET Fold Response.
Solution: 1.10

Problem: Reported NanoBRET Fold Response, molecule O=C(CCOCCOCCOCCOCCNC(=O)CCc1ccc2n1[B-](F)(F)[N+]1=C(c3ccc[nH]3)C=CC1=C2)NCCCN1CCN(C2=Nc3ccccc3Oc3ccc(Cl)cc32)CC1 : ____
Solution: 0.98

Problem: Need NanoBRET Fold Response of Cc1nc2n(c(=O)c1CCN1CCC(c3noc4cc(F)ccc34)CC1)CCCC2OC(=O)NCCOCCOCCOCCOCCNC(=O)CCc1ccc2n1[B-](F)(F)[N+]1=C(c3ccc[nH]3)C=CC1=C2 (centres unmarked) , thanks.
Solution: 0.99

Problem: Which NanoBRET Fold Response is reported for this molecule? CC(C)N(CC[C@H](c1ccccc1)c1cc(CCNC(=O)c2ccc(CNC(=O)CCc3ccc4n3[B-](F)(F)[N+]3=C(c5ccc[nH]5)C=CC3=C4)cc2)ccc1O)C(C)C
Solution: 1.11
